system: IGROV1 ovarian; assay: NCI tumour cell line growth inhibition, 48 h
TGI values for the compounds below.
measured.property: TGI

>>> result("CC(C)(CO)Nc1c(O)c2c(c(O)c1Cl)C(=O)C=CC2=O")
"2.92 µM"
>>> result("NC(=O)c1ccc(S(=O)(=NS(=O)(=O)c2ccccc2)c2ccc(C(N)=O)cc2)cc1")
"> 100 µM"
>>> result("O=C1CSC2=NC3=C(COC/C3=C\\c3ccc(F)cc3)C(c3ccc(F)cc3)N12 (configuration not stated)")
"> 100 µM"
>>> result("CSC(=N/N=C(\\C)c1ccc(S(=O)(=O)N(C)c2ccccc2)cc1)SC")
"> 100 µM"
>>> result("N#CSc1cc(-c2nc3ccccc3o2)ccc1N")
"> 70.1 µM"
>>> result("CC(C)C(NCc1c2ccccc2nc2ccccc12)C(=O)O (configuration not stated)")
"> 100 µM"
>>> result("COc1ccc(OC)c([N+](=O)[O-])c1-c1nc2sc(C)cn2c1/C=N/N=C(N)N")
"33 µM"
>>> result("CC(=O)N1C(=O)/C(=C\\C(=O)c2ccc(Cl)cc2)c2ccccc21")
"33.2 µM"
>>> result("Cn1ccnc1C(=O)/C=C/c1ccc(CC(=O)Nc2cc(F)c(F)c(F)c2)cc1")
"8.22 µM"
>>> result("COc1cc(C)c(S(=O)(=O)N(CCCN)OCCCN)c(C)c1C")
"> 100 µM"
>>> result("Nc1cc2ccncc2c2ccccc12")
"> 100 µM"
>>> result("CC(C)c1cc(C(C)C)c(B(c2ccccc2)c2ccccc2)c(C(C)C)c1Br")
"> 100 µM"
>>> result("CCC[CH2][Sn]1([CH2]CCC)[O]N=Cc2ccccc2[O]1")
"2.25 µM"
>>> result("S=C1NC2=C(CCOc3c2ccc2ccccc32)C(c2ccc(Cl)cc2)N1 (configuration not stated)")
"> 100 µM"
>>> result("O=S1(=O)OCCOS(=O)(=O)C1S(=O)(=O)c1cccc2ccccc12")
"> 100 µM"
>>> result("O=[P+](O)c1cc2c3ccccc3ccc2c2ccccc12")
"> 100 µM"
>>> result("COC(=O)CCCCCCCCC(=O)c1c(C)[nH]c(/C=C2\\N=C(c3ccc[nH]3)C=C2OC)c1C")
"> 100 µM"
>>> result("CC(=O)O[C@H]1Cc2c([nH]c3ccccc23)[C@@H](c2ccc(Cl)cc2)N1C(=O)CCNC(C)(C)C")
"7.77 µM"
>>> result("N#Cc1nc(C(=O)c2ccccc2)oc1N")
"> 100 µM"
>>> result("Oc1cccc(-c2cn3cc(Cl)ccc3n2)c1")
"> 100 µM"
>>> result("Nc1ccc(C(=O)N/C(=C\\c2ccc3c(c2)OCO3)c2nc3ccc4c(c3[nH]2)C(=O)c2ccccc2C4=O)cc1")
"> 100 µM"
>>> result("CC1(C)CC(=O)C=C(NC(=O)c2ccccc2)C1")
"> 100 µM"

---

GI50 values for the compounds below.
tested on: CAKI-1 renal; test: NCI tumour cell line growth inhibition, 48 h
*1 amine or outer side, *2 acyl side, *3 side chain or, on linkers, in order; H or OH if unused. Where a SMILES comes first, the peptide text is derived from it. [ ]: non-standard residue; d: D form. The star is where a group is joined. X12 = NCCCCC(N[*:1])C(=O)CN1CCCC1C(=O)[*:2]; Pentadecanoyl = CCCCCCCCCCCCCCC(=O)*
measured.property: GI50

>>> result("CCc1cc(Nc2nccc(-c3c(-c4ccc(OC)c(C(=O)Nc5c(F)cccc5F)c4)nc4ccccn34)n2)c(OC)cc1N1CCC(N2CCN(S(C)(=O)=O)CC2)CC1")
"> 100 µM"
>>> result("O=C(c1nc2ccccc2[nH]1)C1C(c2cccc([N+](=O)[O-])c2)C2CC3CCCCC3N2[C@@]12C(=O)Nc1cc(Cl)ccc12 (stereo partly specified)")
"1.43 µM"
>>> result("CCCCCCCCCCCCCCC(=O)NC(CCCCN)C(=O)CN1CCCC1C(=O)NCC(=O)NC(Cc1ccccc1)C(=O)N1CCCC1C(=O)NC(CO)C(=O)NC(Cc1ccc(O)cc1)C(=O)NC(CCCCN)C(=O)NC(CC(C)C)C(=O)NC(CCCN=C(N)N)C(=O)N1CCCC1C(=O)NCC(N)=O (stereo unspecified) (Pentadecanoyl-[X12]GFPSYKLRPG-NH2; configuration not given here)")
"20.6 µM"
>>> result("COc1cc(C2CC(c3cc(Cl)c(C)cc3O)=NN2c2ccc(S(N)(=O)=O)cc2)cc(OC)c1OC (stereo unspecified)")
"2.55 µM"
>>> result("Cn1cc(C2=C(c3cccc(Cl)c3)C(=O)NC2=O)c2ccccc21")
"> 17 µM"
>>> result("CCOC(=O)CCC(NC(=O)c1ccc(Nc2nc3cc(N)cc(N)c3nc2-c2ccccc2)cc1)C(=O)OCC (stereo unspecified)")
"> 52.6 µM"

Data provenance is PubChem BioAssay (NCI).
